biological target: APOBEC3A E72Q (Homo sapiens, UniProt P31941 1-199, E72Q); assay: NMR titration
Sequence (P31941 whole entry E72Q): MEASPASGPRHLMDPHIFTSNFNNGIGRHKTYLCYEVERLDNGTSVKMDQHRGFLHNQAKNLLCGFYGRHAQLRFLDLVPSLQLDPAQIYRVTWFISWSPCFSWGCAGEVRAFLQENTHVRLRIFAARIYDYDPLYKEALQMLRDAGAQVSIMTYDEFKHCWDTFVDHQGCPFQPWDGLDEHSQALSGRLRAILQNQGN
quantity: Kd (µM)
Give bare numbers, in µM.

## Task Please report the recorded Kd for ATTATTTCATTTATT (ssDNA) [ATTATTTCATTTATT (15-nt substrate)] .
## Result 55

Origin of measurements: paper PMC3674325
